Attribute: IC50
Molecular target: human angiopoietin-2 protein (Homo sapiens, UniProt O15123)
Construct: purchased R&D Systems
Sequence (O15123 19-496): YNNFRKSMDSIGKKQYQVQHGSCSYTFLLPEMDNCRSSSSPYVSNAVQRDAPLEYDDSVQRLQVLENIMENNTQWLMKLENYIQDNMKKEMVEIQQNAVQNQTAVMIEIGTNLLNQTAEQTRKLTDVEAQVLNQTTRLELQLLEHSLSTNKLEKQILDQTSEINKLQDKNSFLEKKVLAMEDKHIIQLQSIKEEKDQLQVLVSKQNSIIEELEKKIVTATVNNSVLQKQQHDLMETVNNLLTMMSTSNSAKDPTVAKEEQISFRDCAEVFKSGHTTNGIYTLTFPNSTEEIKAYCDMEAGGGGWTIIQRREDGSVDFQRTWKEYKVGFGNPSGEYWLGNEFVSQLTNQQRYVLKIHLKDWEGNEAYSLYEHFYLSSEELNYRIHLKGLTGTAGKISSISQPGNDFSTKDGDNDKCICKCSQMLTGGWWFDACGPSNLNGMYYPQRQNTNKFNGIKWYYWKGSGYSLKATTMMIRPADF
Assay: Competitive ELISA: inhibition of Ang-2-Tie-2 binding, plates coated with Ang-2 (Table 7)
Settings: T = targeting peptide plus linker (compounds 21-23: peptide alone), read-out: Ang-2 T IC50
Description: The ability of Ang-2 binding compounds to interact with Ang-2 was measured by competition with Tie-2. For competitive ELISA, human angiopoietin-2 protein and Tie-2-Fc (R&D Systems) were reconstituted without carrier protein. […] High-binding half-well plates were coated with Ang-2 (100 ng/well) in 50 μl PBS and incubated at 4° C. overnight. […] Color development was monitored and stopped with 25 μl of 2 M H2SO4. OD450 nm with a correction wavelength of 540 nm was measured. […]
Starred links: 1 amine or outer side, 2 acyl side, 3 side chain; linkers in the order of their positions; H or OH if unused. Non-standard residues stand in square brackets, D forms with d. No end group written: not given here. AcK = CC(=O)NCCCC[C@H](N[*:1])C(=O)[*:2]; 0P = not defined here

substance	recorded_result
31 (Q[AcK]YQPLDELDETK(0P)YDQFMLQQG; reading uncertain; also: printed as Q(AcK)Y QPL DEL DET K(0P)YD QFM LQQ G) [Compound 31]	> 5 µM
38 (QXYQPLDELDXTXYDQFMLQQG; not fully specified; AcK; K(0P); homocyclohexylalanine; Anti-angiogenic peptide) [Compound 38]	> 5 µM
40 (QXYQPLDELDXTXYDQFMLQQG; AcK; K(0P); thienylalanine; Anti-angiogenic peptide) [Compound 40]	> 5 µM

Shifting focus to the substance that follows.
IN: Given the entry R^1-QNY QPL DEL DKT LYD QFM LQQ G-R^2 (QNYQPLDELDKTLYDQFMLQQG; also: variable termini R1, R2) [Compound 28] , report its measured IC50.
OUT: 0.175 µM

----------
Target: human angiopoietin-2 protein (Homo sapiens, UniProt O15123)
Construct: purchased R&D Systems
Sequence (O15123 19-496): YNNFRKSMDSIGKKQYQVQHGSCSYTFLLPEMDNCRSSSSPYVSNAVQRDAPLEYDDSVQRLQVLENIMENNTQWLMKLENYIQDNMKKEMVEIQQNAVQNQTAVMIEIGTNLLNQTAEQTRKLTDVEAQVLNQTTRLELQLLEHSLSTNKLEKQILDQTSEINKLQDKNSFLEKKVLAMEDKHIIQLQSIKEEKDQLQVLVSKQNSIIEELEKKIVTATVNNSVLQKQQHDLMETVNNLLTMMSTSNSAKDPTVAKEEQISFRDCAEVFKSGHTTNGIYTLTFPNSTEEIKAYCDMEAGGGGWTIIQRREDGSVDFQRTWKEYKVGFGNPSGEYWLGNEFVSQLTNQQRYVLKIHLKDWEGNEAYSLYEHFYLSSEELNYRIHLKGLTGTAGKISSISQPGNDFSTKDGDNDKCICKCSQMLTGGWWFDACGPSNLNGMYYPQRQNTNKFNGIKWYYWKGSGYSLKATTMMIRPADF
Experiment: Competitive ELISA: inhibition of Ang-2-Tie-2 binding, plates coated with Ang-2 (Table 7)
Details: P = targeting peptide linked to antibody h38c2 via the linker, read-out: Ang-2 P IC50
Starred links: 1 amine or outer side, 2 acyl side, 3 side chain; linkers in the order of their positions; H or OH if unused. Non-standard residues stand in square brackets, D forms with d. No end group written: not given here. AcK = CC(=O)NCCCC[C@H](N[*:1])C(=O)[*:2]; 0P = not defined here
assay_metric: IC50 (nM)

substance	uom	IC50
59 (QRYQPLDELDXTLYDQFMLQQG; K(0P) modified lysine; Anti-angiogenic peptide) [Compound 59]	nM	16.1
38 (QXYQPLDELDXTXYDQFMLQQG; not fully specified; AcK; K(0P); homocyclohexylalanine; Anti-angiogenic peptide) [Compound 38]	nM	703
37 (QXYQPLDEIDXTLYDQFMLQQG; AcK; K(0P) modified lysine; Anti-angiogenic peptide) [Compound 37]	nM	80
60 (QHYQPLDELDXTLYDQFMLQQG; not fully specified; K(0P) modified lysine; Anti-angiogenic peptide) [Compound 60]	nM	14.4
25: "compounds of SEQ ID NOs:65 and 66 are Ang-2 binding peptides conjugated to a linker-antibody, where the linker is 4P (“4” PEG)" (QNYQPLDELDXTLYDQFMLQQG; 4P PEG linker conjugated to antibody; Anti-angiogenic peptide) [Compound 25]	nM	40.5
QAcKY QPL DEL DK(4P)T LYD QFM LQQ G (QXYQPLDELDXTLYDQFMLQQG; not fully specified; acetyl-lysine; 4P PEG linker to antibody at K11; Anti-angiogenic peptide) [Compound 24, "the second amino acid residue is epsilon acyl lysine ... the linking position (in this case a 4P linker) is the lysine residue 11"]	nM	17.4

I = 35 (QXYQXLDELDXTLYDQFMLQQG; AcK; hydroxyproline; K(0P); Anti-angiogenic peptide) [Compound 35]
II = 33 (Q[AcK]YQPLDEK(0P)DETLYDQFMLQQG; reading uncertain) [Compound 33]
III = 36 (QXYQPLDELDXTIYDQFMLQQG; AcK; K(0P) modified lysine; Anti-angiogenic peptide) [Compound 36]
IV = R^1-QNY QPL DEL DKT LYD QFM LQQ G-R^2 (QNYQPLDELDKTLYDQFMLQQG; also: variable termini R1, R2) [Compound 28]
IN: Hey, can you sort those substances up there by IC50, smallest first? Answer by listing the labels in the order asked for.
OUT: I, IV, II, III
